Entry source: patent US12252459B2

Assay: Cytotoxicity assay (MTT) on RAW264.7 cells
Format: cell-based
Conditions: mouse, RAW264.7 cell growth inhibition, MTT method
Experimental: Example 32: Cytotoxicity Assay of Compounds RAW264.7 cells were cultured in vitro using DMEM high glucose medium containing 10% fetal bovine serum at 37° C. under 5% CO2 for routine maintenance culture and passage. S2. Compound Intervention […] The RAW264.7 cell growth inhibition rate by each compound was calculated according to the following equation: […]
Listed next: entries and their corresponding CC50 at 2 days.

Solved entries:
# Smiles Record, CC50 at 2 days
measured = [
    ("CC(=O)/C(=N\\Nc1ccccc1C(=O)O)C(=O)Nc1cccc(O)n1", "198 µM"),
    ("CCOC(=O)c1sc(NC(=O)/C(=N/Nc2ccc(N)cc2C(=O)O)C(C)=O)nc1C", "49.1 µM"),
]

Given the compound CCOC(=O)c1sc(NC(=O)/C(=N/Nc2c(C)cccc2C(=O)O)C(C)=O)nc1C , what is its reported CC50 at 2 days? 62.8 µM

Given the compound CCOC(=O)c1sc(NC(=O)/C(=N/Nc2ccncc2C(=O)O)C(C)=O)nc1C , what is its reported CC50 at 2 days? 451 µM

###

test system: RANKL-induced osteoclast differentiation of RAW264.7 cells; assay: Osteoclast differentiation inhibition experiment (RANKL-induced, TRAP staining); format: cell-based; conditions: selective inhibition constant = CC50 (RAW264.7 cytotoxicity) / IC50 (osteoclast differentiation)
Measurement Label: Therapeutic index SI (CC50/IC50)
Keep it simple and answer with nothing but the number.

# Molecule, Measured On, Therapeutic index SI (CC50/IC50)
records = [
    ("CCOC(=O)c1sc(NC(=O)/C(=N/Nc2ccccc2C(=O)OC)C(C)=O)nc1C [Compound 4]", "RANKL-induced osteoclast differentiation of RAW264.7 cells", 65),
    ("CCOC(=O)c1sc(NC(=O)/C(=N/Nc2ccc(F)cc2C(=O)O)C(C)=O)nc1C [Compound 10]", "RANKL-induced osteoclast differentiation of RAW264.7 cells", 308),
    ("CCOC(=O)c1sc(NC(=O)/C(=N/Nc2ccc(C(=O)O)cc2)C(C)=O)nc1C [Compound 2]", "RANKL-induced osteoclast differentiation of RAW264.7 cells", 95),
    ("CCOC(=O)c1sc(NC(=O)/C(=N/Nc2cc(F)ccc2C(=O)O)C(C)=O)nc1C [Compound 11]", "RANKL-induced osteoclast differentiation of RAW264.7 cells", 56),
    ("CCOC(=O)c1sc(NC(=O)/C(=N/Nc2ccc([N+](=O)[O-])cc2C(=O)O)C(C)=O)nc1C [Compound 14]", "RANKL-induced osteoclast differentiation of RAW264.7 cells", 47),
    ("CCOC(=O)c1sc(NC(=O)/C(=N/Nc2ccccc2CO)C(C)=O)nc1C [Compound 6]", "RANKL-induced osteoclast differentiation of RAW264.7 cells", 6),
    ("CC(=O)/C(=N\\Nc1ccccc1C(=O)O)C(=O)Nc1nccs1 [Compound 22]", "RANKL-induced osteoclast differentiation of RAW264.7 cells", 41),
]

Please turn your attention to the following entry.
Given the molecule CCOC(=O)c1sc(NC(=O)/C(=N/Nc2ccc(Cl)cc2C(=O)O)C(C)=O)nc1C [Compound 15] , what is its reported Therapeutic index SI (CC50/IC50)? 22

###

experiment: Cytotoxicity assay (MTT) on RAW264.7 cells; format: cell-based; settings: mouse, RAW264.7 cell growth inhibition, MTT method
// map CC50 at 2 days onto a label; ranges I: < 70 µM; II: ≥ 70 µM and < 100 µM; III: ≥ 100 µM

# Compound, Discrete Label
rows = [
    ("CC(=O)/C(=N\\Nc1ccccc1C(=O)O)C(=O)Nc1nccs1 [Compound 22]", "III"),
    ("CCOC(=O)c1sc(NC(=O)/C(=N/Nc2c(C#N)cccc2C(=O)O)C(C)=O)nc1C [Compound 12]", "III"),
    ("CC(=O)/C(=N\\Nc1ccccc1C(=O)O)C(=O)Nc1nc(C)cs1 [Compound 21]", "III"),
    ("CCOC(=O)c1sc(NC(=O)/C(=N/Nc2cc(C#N)ccc2C(=O)O)C(C)=O)nc1C [Compound 13]", "I"),
    ("CC(=O)/C(=N\\Nc1ccccc1C(=O)O)C(=O)Nc1ccc(C#N)cn1 [Compound 29]", "III"),
    ("CC(=O)/C(=N\\Nc1ccccc1C(=O)O)C(=O)N1CCOCC1 [Compound 28]", "II"),
    ("CC(=O)/C(=N\\Nc1ccccc1C(=O)O)C(=O)NC1CCNCC1 [Compound 26]", "I"),
]

Attention now turns to another entry.
Please indicate the class for CC(=O)/C(=N\Nc1ccccc1C(=O)O)C(=O)Nc1ccccc1 [Compound 24] based on its CC50 at 2 days. II

###

system: RANKL-induced osteoclast differentiation of RAW264.7 cells; test: Osteoclast differentiation inhibition experiment (RANKL-induced, TRAP staining); type: cell-based; settings: selective inhibition constant = CC50 (RAW264.7 cytotoxicity) / IC50 (osteoclast differentiation)
Listed next: entries and their corresponding Therapeutic index SI (CC50/IC50).
Keep it simple and answer with nothing but the number.

Solved entries:
# Smiles Record, Recorded Value
records = [
    ("CC(=O)/C(=N\\Nc1ccccc1C(=O)O)C(=O)N1CCOCC1", 77),
    ("CCOC(=O)c1sc(NC(=O)/C(=N/Nc2c(C)cccc2C(=O)O)C(C)=O)nc1C", 63),
]

Given the molecule CCOC(=O)c1sc(NC(=O)/C(=N/Nc2cc(C#N)ccc2C(=O)O)C(C)=O)nc1C , what is its reported Therapeutic index SI (CC50/IC50)? 71

Given the molecule CCOC(=O)c1sc(NC(=O)/C(=N/Nc2cc(C)ccc2C(=O)O)C(C)=O)nc1C , what is its reported Therapeutic index SI (CC50/IC50)? 15

###

Experiment: Cytotoxicity assay (MTT) on RAW264.7 cells
Type: cell-based
Conditions: mouse, RAW264.7 cell growth inhibition, MTT method
Description: Example 32: Cytotoxicity Assay of Compounds RAW264.7 cells were cultured in vitro using DMEM high glucose medium containing 10% fetal bovine serum at 37° C. under 5% CO2 for routine maintenance culture and passage. S2. Compound Intervention […] The RAW264.7 cell growth inhibition rate by each compound was calculated according to the following equation: […]
Measurement Label: CC50 at 2 days (µM)
Report as a plain number; the unit µM is understood.

# Smiles Record, CC50 at 2 days / µM
records = [
    ("CCOC(=O)c1sc(NC(=O)/C(=N/Nc2ccc(C)cc2C(=O)O)C(C)=O)nc1C", 89),
    ("CCOC(=O)c1sc(NC(=O)/C(=N/Nc2cc(F)ccc2C(=O)O)C(C)=O)nc1C", 57.2),
    ("CCOC(=O)c1sc(NC(=O)/C(=N/Nc2ccc(Cl)cc2C(=O)O)C(C)=O)nc1C", 33.9),
]

Please turn your attention to the following entry.
Given the compound CC(=O)/C(=N\Nc1ccccc1C(=O)O)C(=O)N1CCc2ccccc2C1 , what is its reported CC50 at 2 days? 135

###

Assay: Cytotoxicity assay (MTT) on RAW264.7 cells
Type: cell-based
Conditions: mouse, RAW264.7 cell growth inhibition, MTT method
Protocol: Example 32: Cytotoxicity Assay of Compounds RAW264.7 cells were cultured in vitro using DMEM high glucose medium containing 10% fetal bovine serum at 37° C. under 5% CO2 for routine maintenance culture and passage. S2. Compound Intervention […] The RAW264.7 cell growth inhibition rate by each compound was calculated according to the following equation: […]
Measurement Label: CC50 at 2 days (µM)
Report as a plain number; the unit µM is understood.

Solved entries:
# Smiles Record, CC50 at 2 days [µM]
measured = [
    ("CCOC(=O)c1sc(NC(=O)/C(=N/Nc2ccccc2C(=O)OC)C(C)=O)nc1C", 82.1),
    ("CC(=O)/C(=N\\Nc1ccccc1C(=O)O)C(=O)Nc1ccccn1", 81.2),
    ("CCOC(=O)c1sc(NC(=O)/C(=N/Nc2ccccc2O)C(C)=O)nc1C", 52.6),
]

Please turn your attention to the following entry.
Given the compound CCOC(=O)c1sc(NC(=O)/C(=N/Nc2ccccc2C(=O)O)C(C)=O)nc1C , what is its reported CC50 at 2 days? 62.5
